assay: Serum compound levels in ovariectomized rats; assay type: in vivo; conditions: female, rat, 10 mg/kg per oral, read-out: serum compound level
measurementKind: concentration at 6 h (nM)
Kindly answer with a numeric value in nM, unit omitted.

Sample O=C(NCc1ncccc1Cl)c1ccc2c(c1)C1(CCS(=O)(=O)CC1)C(C1CC1)N2S(=O)(=O)c1ccc(F)cc1 (single isomer, unassigned) ; concentration at 6 h observed: 770

====

biological target: human GnRH receptor (Homo sapiens, UniProt P30968); test: IP-One HTRF assay with buserelin (at EC80) stimulation; type: cell-based; settings: CHO cells stably expressing human GnRH receptor, read-out: Potency in IP-One HTRF assay, given as IC50
Sequence (P30968 whole entry): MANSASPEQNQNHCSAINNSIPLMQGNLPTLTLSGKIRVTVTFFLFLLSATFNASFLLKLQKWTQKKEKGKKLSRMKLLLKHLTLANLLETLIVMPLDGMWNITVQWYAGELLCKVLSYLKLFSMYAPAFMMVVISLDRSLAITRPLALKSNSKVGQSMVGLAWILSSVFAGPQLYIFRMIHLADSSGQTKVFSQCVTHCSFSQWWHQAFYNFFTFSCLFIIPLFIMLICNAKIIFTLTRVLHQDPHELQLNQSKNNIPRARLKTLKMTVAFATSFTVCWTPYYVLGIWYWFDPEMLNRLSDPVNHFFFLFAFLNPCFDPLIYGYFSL
pIC50: −log10 of the molar value.
Rule: pIC50 under 7 gives Criterion not met, otherwise Criterion met.

>>> assignedclass("O=C(NCc1ncc(F)cc1Cl)c1ccc2c(c1)C1(CCS(=O)(=O)CC1)C(C1CC1)N2S(=O)(=O)c1ccc(F)cc1 (single isomer, unassigned) [Example 17.2]")
"Criterion not met"
>>> assignedclass("O=C(NCc1ccc(C(F)(F)F)cn1)c1ccc2c(c1)C1(CCS(=O)(=O)CC1)C(C1CC1)N2S(=O)(=O)c1ccc(F)cc1 (stereo not drawn)")
"Criterion not met"

Textbook exercise: given the entry CN(C)S(=O)(=O)c1cccc(NC(=O)c2ccc3c(c2)C2(CCS(=O)(=O)CC2)C(C2CC2)N3S(=O)(=O)c2ccc(F)cc2)c1 (single isomer, unassigned) [Example 37.2] , state whether its pIC50 is greater than or equal to 7. Criterion met

Textbook exercise: given the entry COc1cccc(S(=O)(=O)N2c3ccc(C(=O)NCc4ccccc4Cl)cc3C3(CCS(=O)(=O)CC3)C2C2CC2)c1 (stereo not drawn) [Example 44] , state whether its pIC50 is greater than or equal to 7. Criterion met

Textbook exercise: given the entry O=C(NCc1ccccc1C(F)F)c1ccc2c(c1)C1(CCS(=O)(=O)CC1)C(C1CC1)N2S(=O)(=O)c1ccc(F)cc1 (single isomer, unassigned) [Example 68.1] , state whether its pIC50 is greater than or equal to 7. Criterion met

Textbook exercise: given the entry O=C(NCc1ccccc1C(F)(F)F)c1ccc2c(c1)C1(CCS(=O)(=O)CC1)C(C1CC1)N2S(=O)(=O)c1ccc(F)cc1 (stereo not drawn) [Example 32] , state whether its pIC50 is greater than or equal to 7. Criterion met

Values were extracted from patent US20140357655A1.
